Target: IRF5
Settings: ASO, A-431, 0.01225 µM
After the bases stand the sugars from the 5' end (letter, count) and the backbone: PS all phosphorothioate, else s phosphorothioate and o phosphodiester by linkage. Methylation of C is not given here. [mop] = methoxypropylphosphonate linkage; k = constrained ethyl (cEt); d = 2'-deoxy (DNA)
Reported metric: target mRNA inhibition (%)

{"Residue sequence": "CTGATATGATACCTAA (sugars k3 d2 k1 d7 k3, PS)", "Observed value": 23}
{"Residue sequence": "CTGATATGATACCTAA (sugars k3 d10 k3, linkages s5 [mop]1 s9)", "Observed value": 15}
{"Residue sequence": "CTGATATGATACCTAA (sugars k3 d10 k3, PS)", "Observed value": 29}
{"Residue sequence": "TCTGATATGATACCTA (sugars k3 d2 k1 d7 k3, PS)", "Observed value": 8}

====

Target: MALAT1
Conditions: ASO, A431, 0.005 µM
After the bases stand the sugars from the 5' end (letter, count) and the backbone: PS all phosphorothioate, else s phosphorothioate and o phosphodiester by linkage. Methylation of C is not given here. k = constrained ethyl (cEt); d = 2'-deoxy (DNA)
Recorded target mRNA inhibition, one value per entry.

{"Residue sequence": "TACTCCATGAAGAAGC (sugars k3 d10 k3, PS)", "target mRNA inhibition": "-26%"}
{"Residue sequence": "ATCTGATTCTAACAGC (sugars k3 d10 k3, PS)", "target mRNA inhibition": "40%"}
{"Residue sequence": "CTATTGGTATTAATTC (sugars k3 d10 k3, PS)", "target mRNA inhibition": "7%"}
{"Residue sequence": "CCCTGTTAAGACCATC (sugars k3 d10 k3, PS)", "target mRNA inhibition": "21%"}
{"Residue sequence": "TCACTGCAAGGTCTCA (sugars k3 d10 k3, PS)", "target mRNA inhibition": "48%"}
{"Residue sequence": "ATCAAGGATGTATATA (sugars k3 d10 k3, PS)", "target mRNA inhibition": "0%"}
{"Residue sequence": "CTTTACACCTCAGTAC (sugars k3 d10 k3, PS)", "target mRNA inhibition": "38%"}
{"Residue sequence": "ATGCCTACCGCACAGC (sugars k3 d10 k3, PS)", "target mRNA inhibition": "-8%"}
{"Residue sequence": "GTAACAGGCCACTGCC (sugars k3 d10 k3, PS)", "target mRNA inhibition": "14%"}
{"Residue sequence": "CAACACCCGGAAATCG (sugars k3 d10 k3, PS)", "target mRNA inhibition": "18%"}
{"Residue sequence": "CTTAAAGCACTTCTTG (sugars k3 d10 k3, PS)", "target mRNA inhibition": "-34%"}

====

Target: ANGPTL2
Conditions: ASO, 5 µM
After the bases stand the sugars from the 5' end (letter, count) and the backbone: PS all phosphorothioate, else s phosphorothioate and o phosphodiester by linkage. Methylation of C is not given here. l = locked nucleic acid (LNA); d = 2'-deoxy (DNA)
# maps each entry to its target mRNA inhibition
Reported metric: target mRNA inhibition (%)

{"Residue sequence": "CAGGCGTCTCTGGATGA (sugars l1 d14 l2, PS)", "Reported metric": "target mRNA inhibition", "Measurement units": "%", "Observed value": 17.4}
{"Residue sequence": "TGACCCCTGATTATTCA (sugars l1 d13 l3, PS)", "Reported metric": "target mRNA inhibition", "Measurement units": "%", "Observed value": 7.55}
{"Residue sequence": "ATTTTGAGATTCCCCCAA (sugars l1 d14 l3, PS)", "Reported metric": "target mRNA inhibition", "Measurement units": "%", "Observed value": 3.44}
{"Residue sequence": "CAGAACAATGGGGAGGA (sugars l3 d12 l2, PS)", "Reported metric": "target mRNA inhibition", "Measurement units": "%", "Observed value": 58.5}
{"Residue sequence": "GCTCATTGTTGAGCAGC (sugars l1 d14 l2, PS)", "Reported metric": "target mRNA inhibition", "Measurement units": "%", "Observed value": -2.2}
{"Residue sequence": "CTTAATGGGCAGTAATA (sugars l4 d9 l4, PS)", "Reported metric": "target mRNA inhibition", "Measurement units": "%", "Observed value": 32.6}

Hello, the source for this data is the OligoGym collection, in case you need it.
